As shown below, each of these molecules has a reported pIC50 value.
measuredTarget: UniProtKB O60341
assayProcedure: TR-FRET Assay for LSD1
reportedConditions: read-out: LSD1 IC50
pIC50: −log10 of the molar value. Where a name gives a salt, the structure may show the parent alone.

>  <molecule>
O=C(NO)c1ccc(CCC(=O)N2CCC(NC3CC3c3ccccc3)CC2)cc1 (stereo not shown) [Example 83, TFA Salt]

>  <pIC50>
7.05

$$$$
>  <molecule>
O=C(NO)c1ccc(CCCn2cnc(CNC3CC3c3ccccc3)c2)cc1 (stereo not shown) [Example 75, TFA Salt]

>  <pIC50>
6.54

$$$$
>  <molecule>
Cc1noc(C)c1-c1ccc(C2CC2NCC2CCN(Cc3ccc(C(=O)Nc4ccccc4N)cc3)CC2)cc1 (stereo not shown) [Example 143, TFA Salt]

>  <pIC50>
7.43

$$$$
>  <molecule>
Nc1ccccc1NC(=O)c1ccc(CN2CCC(CNC3CC3c3ccc(-c4cncnc4)cc3)CC2)cc1 (stereo not shown) [Example 144, TFA Salt]

>  <pIC50>
7.39

$$$$
>  <molecule>
O=C(NO)c1ccc(OCCN2CCC(CNC3CC3c3ccc(F)cc3)CC2)nc1 (stereo not shown) [Example 96, TFA Salt]

>  <pIC50>
7.66

$$$$
>  <molecule>
Cc1noc(C)c1-c1ccc(C2CC2NCC2CCN(C(=O)/C=C/c3ccc(C(=O)NO)cc3)CC2)cc1 (stereo not shown) [Example 116, TFA Salt]

>  <pIC50>
7.16

$$$$
>  <molecule>
CN(C)CCNC(=O)c1ccc(C2CC2NCC2CCN(CCCc3ccc(C(=O)NO)cc3)CC2)cc1 (stereo not shown) [Example 55, TFA Salt]

>  <pIC50>
7.66

$$$$
